- measurement-target: MLTK (human) (UniProt Q9NYL2)
- Sequence (Q9NYL2 whole entry, looked up): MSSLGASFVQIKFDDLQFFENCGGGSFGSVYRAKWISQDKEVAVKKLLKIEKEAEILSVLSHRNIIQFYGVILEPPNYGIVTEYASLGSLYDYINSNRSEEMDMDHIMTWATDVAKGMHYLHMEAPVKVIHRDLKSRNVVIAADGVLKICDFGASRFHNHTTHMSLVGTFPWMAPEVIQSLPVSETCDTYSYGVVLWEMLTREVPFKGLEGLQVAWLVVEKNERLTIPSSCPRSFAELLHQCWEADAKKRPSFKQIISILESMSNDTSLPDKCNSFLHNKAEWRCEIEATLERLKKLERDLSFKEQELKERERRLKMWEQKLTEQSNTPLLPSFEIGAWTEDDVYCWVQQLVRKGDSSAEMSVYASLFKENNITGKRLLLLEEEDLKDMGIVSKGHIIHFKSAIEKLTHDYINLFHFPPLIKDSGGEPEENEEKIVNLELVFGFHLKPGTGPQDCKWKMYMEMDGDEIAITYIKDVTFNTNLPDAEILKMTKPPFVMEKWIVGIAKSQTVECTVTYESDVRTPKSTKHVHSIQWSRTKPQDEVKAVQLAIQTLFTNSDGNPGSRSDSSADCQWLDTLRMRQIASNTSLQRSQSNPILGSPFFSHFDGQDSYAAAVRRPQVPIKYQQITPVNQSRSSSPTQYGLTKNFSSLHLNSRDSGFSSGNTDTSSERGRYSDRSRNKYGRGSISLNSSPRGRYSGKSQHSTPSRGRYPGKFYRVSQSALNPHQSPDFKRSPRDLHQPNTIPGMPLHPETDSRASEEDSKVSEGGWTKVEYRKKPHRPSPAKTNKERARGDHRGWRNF
- assay-remarks: KINOMEscan competition binding
- measurement-context: compound 10.0 µM
Label fulfilled when kinase still bound, per cent of control is strictly below 80%; otherwise label not fulfilled.

test-smiles	answer-label
O=C(NC1CC1)c1cccc(-c2ccc3c(NC(=O)C4CC4)n[nH]c3c2)c1	not fulfilled
CCN1CCN(Cc2ccc(Nc3ncc4c(n3)N(C)c3ccccc3C(=O)N4C)cc2C(F)(F)F)CC1	fulfilled
Cc1ccc(NC(=O)c2cccc(C(C)(C)C#N)c2)cc1Nc1ccc2ncn(C)c(=O)c2c1	fulfilled
CCOc1cc2ncc(C#N)c(Nc3ccc(OCc4ccccn4)c(Cl)c3)c2cc1NC(=O)/C=C/CN(C)C	fulfilled
C=CC(=O)Nc1cc(NC(=O)c2ccc(C)c(NC(=O)c3ccno3)c2)cc(C(F)(F)F)c1	fulfilled
O=C1Nc2ccc(I)cc2/C1=C/c1cc(Br)c(O)c(Br)c1	not fulfilled

###

- Tested on: EIF2AK4 KD2 (human), Q9P2K8 [S808G]
- Sequence (Q9P2K8 whole entry S808G, looked up): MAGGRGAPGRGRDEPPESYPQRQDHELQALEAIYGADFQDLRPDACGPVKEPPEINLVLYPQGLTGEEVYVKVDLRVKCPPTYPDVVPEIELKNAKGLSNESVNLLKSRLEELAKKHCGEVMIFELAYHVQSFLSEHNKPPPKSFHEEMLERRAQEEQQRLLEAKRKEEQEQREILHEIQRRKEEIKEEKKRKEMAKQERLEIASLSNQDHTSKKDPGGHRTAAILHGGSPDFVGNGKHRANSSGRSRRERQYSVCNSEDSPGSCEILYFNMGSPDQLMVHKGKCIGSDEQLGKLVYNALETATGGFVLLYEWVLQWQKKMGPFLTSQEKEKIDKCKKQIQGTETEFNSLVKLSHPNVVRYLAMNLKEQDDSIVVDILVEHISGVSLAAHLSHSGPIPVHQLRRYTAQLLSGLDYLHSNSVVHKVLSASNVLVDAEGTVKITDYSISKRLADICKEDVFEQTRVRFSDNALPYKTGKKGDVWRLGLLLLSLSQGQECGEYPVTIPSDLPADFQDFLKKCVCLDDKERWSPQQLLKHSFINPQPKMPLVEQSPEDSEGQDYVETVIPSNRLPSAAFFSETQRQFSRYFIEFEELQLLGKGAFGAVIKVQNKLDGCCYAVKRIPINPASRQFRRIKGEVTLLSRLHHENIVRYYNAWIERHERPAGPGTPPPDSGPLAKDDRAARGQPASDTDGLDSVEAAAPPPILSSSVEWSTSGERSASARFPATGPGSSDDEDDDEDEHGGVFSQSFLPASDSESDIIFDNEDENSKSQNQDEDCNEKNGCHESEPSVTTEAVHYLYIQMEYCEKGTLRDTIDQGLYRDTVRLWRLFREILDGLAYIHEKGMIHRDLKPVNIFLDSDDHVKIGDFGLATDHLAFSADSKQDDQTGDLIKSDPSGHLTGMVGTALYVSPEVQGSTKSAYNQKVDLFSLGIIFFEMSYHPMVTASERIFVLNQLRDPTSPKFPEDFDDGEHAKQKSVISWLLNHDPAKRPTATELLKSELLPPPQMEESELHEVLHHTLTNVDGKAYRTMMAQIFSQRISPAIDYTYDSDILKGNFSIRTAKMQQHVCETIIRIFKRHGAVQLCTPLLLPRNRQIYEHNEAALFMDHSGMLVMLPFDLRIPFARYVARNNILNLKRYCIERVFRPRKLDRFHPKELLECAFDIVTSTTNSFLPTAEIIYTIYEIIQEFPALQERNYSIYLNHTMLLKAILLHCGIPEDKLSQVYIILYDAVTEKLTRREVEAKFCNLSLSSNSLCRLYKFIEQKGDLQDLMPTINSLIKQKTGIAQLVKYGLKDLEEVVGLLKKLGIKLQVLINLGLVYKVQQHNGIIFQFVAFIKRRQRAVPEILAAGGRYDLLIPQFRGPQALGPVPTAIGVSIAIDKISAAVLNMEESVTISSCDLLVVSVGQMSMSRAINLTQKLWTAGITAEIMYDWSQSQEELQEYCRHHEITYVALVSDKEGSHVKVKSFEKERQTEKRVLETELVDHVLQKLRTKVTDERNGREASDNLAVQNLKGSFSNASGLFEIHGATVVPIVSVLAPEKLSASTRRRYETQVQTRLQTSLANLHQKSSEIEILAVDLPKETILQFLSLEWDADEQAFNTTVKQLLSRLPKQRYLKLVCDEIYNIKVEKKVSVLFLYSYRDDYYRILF
- assay-remarks: KINOMEscan competition binding
- measurement-context: compound 10.0 µM
value-kind: kinase still bound, per cent of control (%)

molecule	result-number
CCN1CCN(Cc2ccc(NC(=O)c3ccc(C)c(/C=C/c4cnc5[nH]ccc5c4OC)c3)cc2C(F)(F)F)CC1	0.6
C=CC(=O)Nc1ccc(C(=O)c2sc(Nc3ccc(N4CCN(C)CC4)cc3OC)nc2N)cc1	83
C=CC(=O)Nc1cccc(Nc2nc(N[C@H]3CC[C@H](N(C)C)CC3)nc3c2ncn3C(C)C)c1	59
NC(=O)Nc1cc(-c2cccc(F)c2)sc1C(=O)N[C@@H]1CCCNC1	0.3
COc1cc(N2CCN(C)CC2)ccc1Nc1ncc2c(n1)N(C)c1ccccc1C(=O)N2C	100
COc1cc2ncn(-c3cc(OCc4ccccc4C(F)(F)F)c(C(N)=O)s3)c2cc1OC	16
O=C(Nc1cccc(Nc2ncc(Br)c(NCCc3cnc[nH]3)n2)c1)N1CCCC1	0.7
CC(=O)c1c(C)c2cnc(Nc3ccc(N4CCNCC4)cn3)nc2n(C2CCCC2)c1=O	0.4
COc1cc(C(=O)NC2CCN(C)CC2)ccc1Nc1ncc2c(n1)N(C1CCCC1)C(C)CC(=O)N2C (configuration not stated)	100
C[C@@H](Oc1cc(-n2cnc3ccc(CN4CCN(C)CC4)cc32)sc1C(N)=O)c1ccccc1C(F)(F)F	29
C=CC(=O)Nc1cc(NC(=O)c2ccc(C)c(NC(=O)c3ccno3)c2)cc(C(F)(F)F)c1	100
COc1ccc(N(C(=O)Oc2c(C)cccc2C)c2ccnc(Nc3ccc(N4CCN(C)CC4)cc3)n2)c(OC)c1	100
CCOc1cc(N2CCC(O)CC2)ccc1Nc1ncc2c(n1)N(C)c1ccccc1C(=O)N2C	100
COc1cc2ncnc(Nc3cccc(Cl)c3)c2cc1OC	56
COc1cc(C)c(Sc2cnc(NC(=O)c3ccc(CNC(C)C(C)C)cc3)s2)cc1C(=O)N1CCN(C(C)=O)CC1 (configuration not stated)	100
C[C@@H](Oc1cc(-c2cnn(C3CCNCC3)c2)cnc1N)c1c(Cl)ccc(F)c1Cl	100
CCN(CC)CCCCNc1ncc2c(n1)N(C)C(=O)N(c1c(Cl)c(OC)cc(OC)c1Cl)C2	9.5
CNC(=O)c1ccc(Nc2cc(Nc3ccccc3S(=O)(=O)C(C)C)c3cc[nH]c3n2)nc1	100
CCC(=O)N1CCN(c2ccc(-n3c(=O)ccc4cnc5ccc(-c6cnc7ccccc7c6)cc5c43)cc2C(F)(F)F)CC1	99
CCCS(=O)(=O)Nc1ccc(F)c(C(=O)c2c[nH]c3ncc(-c4ccc(Cl)cc4)cc23)c1F	0.55
CCc1nc(-c2cccc(C)c2)c(-c2ccnc(NC(=O)c3ccccc3)c2)s1	100
COc1cc(C(=O)N2CCC(N3CCN(C)CC3)CC2)ccc1Nc1ncc2c(n1)N(C)c1ccccc1C(=O)N2C	95
O=C(NOC[C@H](O)CO)c1ccc(F)c(F)c1Nc1ccc(I)cc1F	84
CCCS(=O)(=O)Nc1ccc(F)c(C(=O)c2c[nH]c3ncc(Cl)cc23)c1F	0.95
N#C/C(=C1/Nc2ccccc2S1)c1ccnc(NCCc2cccnc2)n1	60
Nc1ccc(-c2ccc3ncc4ccc(=O)n(-c5cccc(C(F)(F)F)c5)c4c3c2)cn1	100
COc1cc(N2CCN(C)CC2)ccc1Nc1nc(N)c(C(=O)c2c(Cl)cccc2Cl)s1	100

###

- measurement-target: MST4 (human) (UniProt Q9P289)
- Sequence (Q9P289 whole entry, looked up): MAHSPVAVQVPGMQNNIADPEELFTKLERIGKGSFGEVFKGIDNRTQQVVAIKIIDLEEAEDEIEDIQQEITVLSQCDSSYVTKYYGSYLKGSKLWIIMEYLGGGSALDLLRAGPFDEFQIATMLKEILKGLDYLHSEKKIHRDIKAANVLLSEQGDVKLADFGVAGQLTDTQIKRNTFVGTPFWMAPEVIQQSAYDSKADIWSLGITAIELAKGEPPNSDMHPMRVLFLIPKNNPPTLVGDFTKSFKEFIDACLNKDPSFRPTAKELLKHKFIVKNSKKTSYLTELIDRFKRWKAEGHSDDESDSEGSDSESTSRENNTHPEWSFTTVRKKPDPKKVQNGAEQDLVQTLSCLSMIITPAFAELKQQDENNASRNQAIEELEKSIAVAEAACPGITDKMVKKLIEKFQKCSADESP
- assay-remarks: KINOMEscan competition binding
- measurement-context: compound 10.0 µM
The following compounds are shown together with reported kinase still bound, per cent of control values.

test-smiles	kinase still bound, per cent of control
Nc1ccc(-c2ccc3ncc4ccc(=O)n(-c5cccc(C(F)(F)F)c5)c4c3c2)cn1	73%
O=C(NC1CC1)c1cccc(-c2ccc3c(NC(=O)C4CC4)n[nH]c3c2)c1	94%
N#Cc1c(NC(=O)c2cccc3ccccc23)sc2c1CCCC2	79%
O=C(O)c1ccc(Nc2ncc3c(n2)-c2ccc(Cl)cc2C(c2c(F)cccc2F)=NC3)cc1	100%
C[C@@H](Oc1cc(-n2cnc3ccc(CN4CCN(C)CC4)cc32)sc1C(N)=O)c1ccccc1C(F)(F)F	95%
COc1cc(C(=O)NC2CCN(C)CC2)ccc1Nc1ncc2c(n1)N(C1CCCC1)CCC(=O)N2C(C)C	100%
OCCCNc1cc(-c2ccnc(Nc3cccc(Cl)c3)n2)ccn1	100%
Cc1ccc2nc(NCCN)c3ncc(C)n3c2c1	95%
C=CC(=O)Nc1cc(NC(=O)c2ccc(C)c(NC(=O)c3ccno3)c2)cc(C(F)(F)F)c1	91%
CCCS(=O)(=O)Nc1ccc(F)c(C(=O)c2c[nH]c3ncc(-c4ccc(Cl)cc4)cc23)c1F	100%

###

- measurement-target: PRKD3 (human)
- assay-remarks: KINOMEscan competition binding
- measurement-context: compound 10.0 µM

test-smiles	kinase still bound, per cent of control
Cc1cc([C@@H](C)Nc2ccccc2C(=O)O)c2nc(N3CCOCC3)cc(=O)n2c1	100%
Cc1ccc2nc(NCCN)c3ncc(C)n3c2c1	41%
C=CC(=O)Nc1cc(NC(=O)c2ccc(C)c(NC(=O)c3ccno3)c2)cc(C(F)(F)F)c1	100%
CCN1CCN(Cc2ccc(Nc3ncc4c(n3)N(C)c3ccccc3C(=O)N4C)cc2C(F)(F)F)CC1	8%
OCCCNc1cc(-c2ccnc(Nc3cccc(Cl)c3)n2)ccn1	100%

###

- measurement-target: STK17B (human) (UniProt O94768)
- Sequence (O94768 whole entry, looked up): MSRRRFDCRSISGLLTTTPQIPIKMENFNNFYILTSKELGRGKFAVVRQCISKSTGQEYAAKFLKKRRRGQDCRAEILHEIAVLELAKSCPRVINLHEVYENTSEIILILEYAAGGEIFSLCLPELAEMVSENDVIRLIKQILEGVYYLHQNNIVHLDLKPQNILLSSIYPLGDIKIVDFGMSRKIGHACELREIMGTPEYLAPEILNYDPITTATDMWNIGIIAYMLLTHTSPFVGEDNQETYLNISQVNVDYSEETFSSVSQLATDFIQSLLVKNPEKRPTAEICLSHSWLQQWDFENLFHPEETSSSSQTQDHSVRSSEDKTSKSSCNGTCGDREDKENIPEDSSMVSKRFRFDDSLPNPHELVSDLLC
- assay-remarks: KINOMEscan competition binding
- measurement-context: compound 10.0 µM
Here the recorded kinase still bound, per cent of control is given for each entry.

test-smiles	kinase still bound, per cent of control, %
OCCCNc1cc(-c2ccnc(Nc3cccc(Cl)c3)n2)ccn1	100
CCCS(=O)(=O)Nc1ccc(F)c(C(=O)c2c[nH]c3ncc(-c4ccc(Cl)cc4)cc23)c1F	88
CCOc1cc2ncc(C#N)c(Nc3ccc(OCc4ccccn4)c(Cl)c3)c2cc1NC(=O)/C=C/CN(C)C	46
CN(C)C/C=C/C(=O)Nc1cccc(Nc2ncc3c(n2)N(C)c2ccccc2C(=O)N3C)c1	100
Cn1c(=O)n(-c2ccc(C(C)(C)C#N)cc2)c2c3cc(-c4cnc5ccccc5c4)ccc3ncc21	100
COc1cc(C(=O)NC2CCN(C)CC2)ccc1Nc1ncc2c(n1)N(C1CCCC1)CCC(=O)N2C(C)C	100
COc1cc(N2CCN(C)CC2)ccc1Nc1nc(N)c(C(=O)c2c(Cl)cccc2Cl)s1	73
Cc1ccc(C(=O)Nc2cccc(C(F)(F)F)c2)cc1Nc1cncc(C(N)=O)c1	100
CC[C@@H]1C(=O)N(C)c2cnc(Nc3ccc(C(=O)NC4CCN(C)CC4)cc3OC)nc2N1C1CCCC1	100
Cc1ccc(NC(=O)c2cccc(C(C)(C)C#N)c2)cc1Nc1ccc2ncn(C)c(=O)c2c1	100
Cc1cc([C@@H](C)Nc2ccccc2C(=O)O)c2nc(N3CCOCC3)cc(=O)n2c1	100

###

- measurement-target: MAP3K12 (human) (UniProt Q12852)
- Sequence (Q12852 whole entry, looked up): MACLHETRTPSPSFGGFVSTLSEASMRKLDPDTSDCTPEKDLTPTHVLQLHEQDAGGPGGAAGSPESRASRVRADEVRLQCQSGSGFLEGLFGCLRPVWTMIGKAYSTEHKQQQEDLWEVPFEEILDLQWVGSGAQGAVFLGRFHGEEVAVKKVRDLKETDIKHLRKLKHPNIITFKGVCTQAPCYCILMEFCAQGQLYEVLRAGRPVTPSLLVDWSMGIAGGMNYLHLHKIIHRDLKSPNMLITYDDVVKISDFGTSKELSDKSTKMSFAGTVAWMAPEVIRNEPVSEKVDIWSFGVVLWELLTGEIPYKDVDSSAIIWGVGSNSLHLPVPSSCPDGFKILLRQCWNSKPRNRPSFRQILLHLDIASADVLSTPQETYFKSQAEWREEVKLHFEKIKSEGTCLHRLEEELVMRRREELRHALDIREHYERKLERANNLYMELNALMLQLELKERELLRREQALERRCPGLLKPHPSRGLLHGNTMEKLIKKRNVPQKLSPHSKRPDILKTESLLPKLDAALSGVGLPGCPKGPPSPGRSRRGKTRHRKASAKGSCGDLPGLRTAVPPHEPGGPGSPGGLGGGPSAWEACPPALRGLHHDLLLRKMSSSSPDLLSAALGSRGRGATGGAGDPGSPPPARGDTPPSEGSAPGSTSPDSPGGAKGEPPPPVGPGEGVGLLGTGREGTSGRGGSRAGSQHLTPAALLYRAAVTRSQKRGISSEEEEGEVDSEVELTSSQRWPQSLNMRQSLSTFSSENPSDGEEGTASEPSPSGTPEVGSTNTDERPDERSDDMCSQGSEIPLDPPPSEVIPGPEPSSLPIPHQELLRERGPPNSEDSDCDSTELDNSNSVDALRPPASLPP
- assay-remarks: KINOMEscan competition binding
- measurement-context: compound 10.0 µM

test-smiles	kinase still bound, per cent of control
C=CC(=O)Nc1cccc(Nc2nc(N[C@H]3CC[C@H](N(C)C)CC3)nc3c2ncn3C(C)C)c1	71%
Cn1c(=O)n(-c2ccc(C(C)(C)C#N)cc2)c2c3cc(-c4cnc5ccccc5c4)ccc3ncc21	100%
N#Cc1c(NC(=O)c2cccc3ccccc23)sc2c1CCCC2	79%
O=C(NOC[C@H](O)CO)c1ccc(F)c(F)c1Nc1ccc(I)cc1F	78%
CCCS(=O)(=O)Nc1ccc(F)c(C(=O)c2c[nH]c3ncc(-c4ccc(Cl)cc4)cc23)c1F	62%

###

- measurement-target: BMPR1B (human) (UniProt O00238)
- Sequence (O00238 whole entry, looked up): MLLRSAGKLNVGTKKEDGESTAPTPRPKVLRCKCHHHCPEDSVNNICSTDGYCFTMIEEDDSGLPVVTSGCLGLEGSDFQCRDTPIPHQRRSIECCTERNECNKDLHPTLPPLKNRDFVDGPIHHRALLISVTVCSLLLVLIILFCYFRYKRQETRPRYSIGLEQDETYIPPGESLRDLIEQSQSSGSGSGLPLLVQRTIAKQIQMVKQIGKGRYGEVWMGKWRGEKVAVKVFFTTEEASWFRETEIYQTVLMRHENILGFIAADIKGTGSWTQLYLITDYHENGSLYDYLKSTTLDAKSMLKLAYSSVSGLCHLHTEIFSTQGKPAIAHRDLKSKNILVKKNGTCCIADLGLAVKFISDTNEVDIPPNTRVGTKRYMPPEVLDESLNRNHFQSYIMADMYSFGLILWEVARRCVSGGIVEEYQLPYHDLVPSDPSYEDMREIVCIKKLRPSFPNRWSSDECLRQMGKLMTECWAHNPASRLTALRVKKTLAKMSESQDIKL
- assay-remarks: KINOMEscan competition binding
- measurement-context: compound 10.0 µM
value-kind: kinase still bound, per cent of control (%)

compound	result-number
O=C1Nc2ccc(I)cc2/C1=C/c1cc(Br)c(O)c(Br)c1	27
O=C(O)c1ccc(Nc2ncc3c(n2)-c2ccc(Cl)cc2C(c2c(F)cccc2F)=NC3)cc1	86
C=CC(=O)Nc1cccc(Nc2nc(N[C@H]3CC[C@H](N(C)C)CC3)nc3c2ncn3C(C)C)c1	31
C=CC(=O)Nc1cc(NC(=O)c2ccc(C)c(NC(=O)c3ccno3)c2)cc(C(F)(F)F)c1	100
COc1cc(N2CCN(C)CC2)ccc1Nc1nc(N)c(C(=O)c2c(Cl)cccc2Cl)s1	90
CCCS(=O)(=O)Nc1ccc(F)c(C(=O)c2c[nH]c3ncc(-c4ccc(Cl)cc4)cc23)c1F	67
COc1cc(C(=O)NC2CCN(C)CC2)ccc1Nc1ncc2c(n1)N(C1CCCC1)C(C)CC(=O)N2C (centres undefined)	100
CN(C)C/C=C/C(=O)Nc1cccc(Nc2ncc3c(n2)N(C)c2ccccc2C(=O)N3C)c1	84
O=C(NC1CC1)c1cccc(-c2ccc3c(NC(=O)C4CC4)n[nH]c3c2)c1	91
Nc1ccc(-c2ccc3ncc4ccc(=O)n(-c5cccc(C(F)(F)F)c5)c4c3c2)cn1	86
N#Cc1c(NC(=O)c2cccc3ccccc23)sc2c1CCCC2	84
CCN1CCN(Cc2ccc(Nc3ncc4c(n3)N(C)c3ccccc3C(=O)N4C)cc2C(F)(F)F)CC1	53
C[C@@H](Oc1cc(-n2cnc3ccc(CN4CCN(C)CC4)cc32)sc1C(N)=O)c1ccccc1C(F)(F)F	100
Cc1ccc2nc(NCCN)c3ncc(C)n3c2c1	71
Cc1cc([C@@H](C)Nc2ccccc2C(=O)O)c2nc(N3CCOCC3)cc(=O)n2c1	69
COc1cc(C(=O)NC2CCN(C)CC2)ccc1Nc1ncc2c(n1)N(C1CCCC1)CCC(=O)N2C(C)C	100
CCOc1cc2ncc(C#N)c(Nc3ccc(OCc4ccccn4)c(Cl)c3)c2cc1NC(=O)/C=C/CN(C)C	81
Cn1c(=O)n(-c2ccc(C(C)(C)C#N)cc2)c2c3cc(-c4cnc5ccccc5c4)ccc3ncc21	100
Cc1ccc(C(=O)Nc2cccc(C(F)(F)F)c2)cc1Nc1cncc(C(N)=O)c1	100
C=CC(=O)Nc1cccc(Oc2nc(Nc3ccc(N4CCN(C)CC4)cc3OC)ncc2Cl)c1	100
O=C(NOC[C@H](O)CO)c1ccc(F)c(F)c1Nc1ccc(I)cc1F	81
OCCCNc1cc(-c2ccnc(Nc3cccc(Cl)c3)n2)ccn1	100
CC[C@@H]1C(=O)N(C)c2cnc(Nc3ccc(C(=O)NC4CCN(C)CC4)cc3OC)nc2N1C1CCCC1	100
Cc1ccc(NC(=O)c2cccc(C(C)(C)C#N)c2)cc1Nc1ccc2ncn(C)c(=O)c2c1	82
